Source listed as paper PMC7611149.

target: CpOGA (Clostridium perfringens)
Sequence (Q0TR53 31-1001 limits assumed): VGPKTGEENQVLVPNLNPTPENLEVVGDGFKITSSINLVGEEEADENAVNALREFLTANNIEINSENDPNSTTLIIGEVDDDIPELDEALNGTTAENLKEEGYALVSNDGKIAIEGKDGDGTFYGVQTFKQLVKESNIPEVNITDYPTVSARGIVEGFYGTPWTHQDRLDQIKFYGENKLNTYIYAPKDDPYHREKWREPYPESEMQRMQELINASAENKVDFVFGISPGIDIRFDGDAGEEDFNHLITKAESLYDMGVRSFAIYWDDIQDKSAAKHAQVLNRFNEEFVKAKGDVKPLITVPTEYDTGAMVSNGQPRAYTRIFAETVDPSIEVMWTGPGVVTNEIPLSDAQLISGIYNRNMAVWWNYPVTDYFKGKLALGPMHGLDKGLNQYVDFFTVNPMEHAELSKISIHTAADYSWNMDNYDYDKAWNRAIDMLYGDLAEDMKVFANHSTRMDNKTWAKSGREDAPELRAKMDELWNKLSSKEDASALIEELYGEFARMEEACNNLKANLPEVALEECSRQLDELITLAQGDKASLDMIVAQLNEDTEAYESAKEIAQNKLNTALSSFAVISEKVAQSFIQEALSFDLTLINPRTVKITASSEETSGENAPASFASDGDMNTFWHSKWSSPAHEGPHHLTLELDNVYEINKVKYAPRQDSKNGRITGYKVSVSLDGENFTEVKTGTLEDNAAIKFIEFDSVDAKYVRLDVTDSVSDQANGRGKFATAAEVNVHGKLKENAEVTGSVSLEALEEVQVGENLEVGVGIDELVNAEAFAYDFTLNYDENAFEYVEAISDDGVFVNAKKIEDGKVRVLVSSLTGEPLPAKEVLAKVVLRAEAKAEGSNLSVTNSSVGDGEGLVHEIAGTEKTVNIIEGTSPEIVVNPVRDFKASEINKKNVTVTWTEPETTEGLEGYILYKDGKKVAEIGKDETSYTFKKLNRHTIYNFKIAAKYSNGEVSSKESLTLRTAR
measurement.label: pKi
# log scale: pKi equals minus log10 of the concentration in mol/L

I am curious: what pKi value has been reported for FC(F)(F)C1=NCCNC=C1 [5TFD] ?
3.84

----------
target: human OGA (hOGA) (Homo sapiens, UniProt O60502)
Sequence (O60502 60-336 limits assumed): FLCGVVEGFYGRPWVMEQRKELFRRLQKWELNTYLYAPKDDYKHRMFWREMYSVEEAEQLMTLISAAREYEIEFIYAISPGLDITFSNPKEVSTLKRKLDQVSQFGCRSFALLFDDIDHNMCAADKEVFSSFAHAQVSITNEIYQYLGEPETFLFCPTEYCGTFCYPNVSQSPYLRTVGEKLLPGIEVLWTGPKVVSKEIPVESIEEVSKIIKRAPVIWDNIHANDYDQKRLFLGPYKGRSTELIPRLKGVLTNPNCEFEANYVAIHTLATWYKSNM
measurement.label: Ki (nM)
Numeric only. Scale: nM

For the compound shown here, CC(=O)N[C@H]1c2nc(CCc3ccccc3)cn2[C@H](CO)[C@@H](O)[C@@H]1O , give the reported Ki.
23.2
